lowest phenotypically active concentration overview
tested on: WPMY1-GM130-SQSTM1; assay: lowest phenotypically active concentration; higher = less potent; conditions: treatment time: 24 h
MEASURED ENDPOINT: lowest phenotypically active concentration (µM)

{"columns": ["STRUCTURE STRING", "RECORDED MEASUREMENT"],
 "data": [
  ["Nc1ncnc2[nH]nc(Nc3ccc(F)cc3)c12", 3],
  ["COc1c(C=O)c(O)cc2c1C(=O)c1ccccc1C2=O", 3],
  ["N#C/C(=C/c1ccc(O)c(O)c1)C(=O)NCCCCc1ccccc1", 9]
]}

---

system: HepG2-GM130-SQSTM1; assay: lowest phenotypically active concentration; higher = less potent; conditions: treatment time: 24 h
MEASURED ENDPOINT: lowest phenotypically active concentration (µM)

{"columns": ["STRUCTURE STRING", "UNIT SPEC", "READING QUALIFIER", "RECORDED MEASUREMENT"],
 "data": [
  ["Cc1c(CN2CCN(C(=O)[C@H](C)O)CC2)sc2c(N3CCOCC3)nc(-c3cnc(N)nc3)nc12", "µM", "≤", 0.3],
  ["CC(C)(C)c1cnc(CSc2cnc(NC(=O)C3CCNCC3)s2)o1", "µM", "≤", 0.3],
  ["Cc1c[nH]c2nccc(Oc3c(F)cc(Nc4cc(Cl)nc(N)n4)cc3F)c12", "µM", "≤", 0.3],
  ["CCCCOc1c(C(=O)c2c(F)cc(C)cc2F)cnc2[nH]ncc12", "µM", "=", 9],
  ["C=CC(=O)Nc1cccc(Nc2nc(Nc3ccc(Oc4ccnc(C(=O)NC)c4)cc3)ncc2F)c1", "µM", "=", 9]
]}

---

tested on: HepG2-GM130-SQSTM1; test: phenotypically active (imaging signature differs from DMSO and reproducible) at any of 0.3-9 uM (binary (1 = active, 0 = inactive)); higher = active; conditions: treatment time: 24 h
Where a name gives a salt, the structure may show the parent alone.
phenotypically active overview

{"columns": ["MOLECULE", "phenotypically active"],
 "data": [
  ["CCOC(=O)[C@H](CCc1ccccc1)N[C@@H](C)C(=O)N1[C@H](C(=O)O)C[C@@H]2CCC[C@@H]21 [ramipril]", "0 (inactive)"],
  ["Cc1ccc(S(=O)(=O)c2ccc([N+](=O)[O-])o2)cc1", "1 (active)"],
  ["N#Cc1cccc(-c2c[nH]c3ncnc(N4CCOCC4)c23)c1", "1 (active)"],
  ["C[C@@H](Nc1ncnc2[nH]c(-c3ccc(O)cc3)cc12)c1ccccc1 [PKI 166 hydrochloride]", "0 (inactive)"],
  ["COc1cccc(-c2cc(F)ccc2[C@H]2Cc3nc(N)nc(C)c3C(=O)N2)n1", "1 (active)"],
  ["NC(=O)c1ccc(I)c([N+](=O)[O-])c1", "1 (active)"],
  ["CN(C)CCOC(c1ccc(Cl)cc1)c1ccccn1 (stereo not drawn) [carbinoxamine]", "0 (inactive)"],
  ["O=c1cc(-c2ccc(O)cc2)oc2c(C3O[C@H](CO)[C@@H](O)[C@H](O)[C@H]3O)c(O)cc(O)c12 (stereo partly drawn) [Vitexin]", "0 (inactive)"],
  ["CC(C)N(CCCNC(=O)Nc1ccc(C(C)(C)C)cc1)C[C@H]1O[C@@H](n2ccc3c(N)ncnc32)[C@H](O)[C@@H]1O", "1 (active)"],
  ["C=C[C@H]1CN2CC[C@H]1C[C@@H]2[C@@H](O)c1ccnc2ccc(OC)cc12 [Quinidine hydrochloride monohydrate]", "0 (inactive)"],
  ["Cn1c(=O)c2nc[nH]c2n(C)c1=O [theophylline]", "0 (inactive)"],
  ["CN1CC[C@H](c2c(O)cc(O)c3c(=O)cc(-c4ccccc4Cl)oc23)[C@H](O)C1 [Flavopiridol hydrochloride]", "1 (active)"],
  ["CC(C)n1nc(-c2cc3cc(O)ccc3[nH]2)c2c(N)ncnc21", "1 (active)"],
  ["CO[C@@]12[C@H](COC(N)=O)C3=C(C(=O)C(C)=C(N)C3=O)N1C[C@@H]1N[C@@H]12 [mitomycin]", "0 (inactive)"],
  ["CC(C)NCC(O)COc1ccc(CC(N)=O)cc1 (stereo not drawn) [atenolol-()]", "0 (inactive)"],
  ["CC(C)(Sc1ccc(CCN(CCCCC2CCCCC2)C(=O)NC2CCCCC2)cc1)C(=O)O", "0 (inactive)"],
  ["COc1ccc(S(=O)(=O)ON=C2C=C(C)C(=O)C(C)=C2)cc1", "0 (inactive)"],
  ["CC(C(=O)O)c1ccc(C(=O)c2cccs2)cc1 (stereo not drawn) [suprofen]", "0 (inactive)"]
]}

---

test system: WPMY1-ACTB-RAB5A; assay: phenotypically active (imaging signature differs from DMSO and reproducible) at any of 0.3-9 uM (binary (1 = active, 0 = inactive)); higher = active; conditions: treatment time: 24 h
Outcomes: y = active, n = inactive

{"columns": ["COMPOUND", "TARGET OR TEST SYSTEM", "LABEL CLASS"],
 "data": [
  ["Cc1cc(Nc2nc(N[C@@H](C)c3ncc(F)cn3)ncc2Cl)n[nH]1", "WPMY1-ACTB-RAB5A", "y"],
  ["C#C[C@]1(O)CC[C@H]2[C@@H]3CCC4=CCCC[C@@H]4[C@H]3C(=C)C[C@@]21CC", "WPMY1-ACTB-RAB5A", "n"],
  ["CC(C)(C)c1nc(-c2cccc(NS(=O)(=O)c3c(F)cccc3F)c2F)c(-c2ccnc(N)n2)s1", "WPMY1-ACTB-RAB5A", "y"],
  ["O=C(O)[C@H]1O[C@@H](Oc2cc3oc(-c4ccccc4)cc(=O)c3c(O)c2O)[C@H](O)[C@@H](O)[C@@H]1O", "WPMY1-ACTB-RAB5A", "n"],
  ["Cn1cnc2c(NCc3ccccc3)nc(NCCO)nc21", "WPMY1-ACTB-RAB5A", "n"],
  ["CN(C)CCCN1c2ccccc2Sc2ccc(Cl)cc21", "WPMY1-ACTB-RAB5A", "y"],
  ["Cc1ccc(C(=O)c2ccc(CC(=O)O)n2C)cc1", "WPMY1-ACTB-RAB5A", "n"],
  ["Cc1c(F)cc(C(=O)NC2CC2)cc1-c1ccc(C(=O)NCC(C)(C)C)cn1", "WPMY1-ACTB-RAB5A", "n"],
  ["CCOC(=O)Nc1ccc2c(c1)N(C(=O)CCN1CCOCC1)c1ccccc1S2", "WPMY1-ACTB-RAB5A", "n"],
  ["COC(=O)c1sccc1S(=O)(=O)Nc1ccc(Nc2ccccc2)cc1OC", "WPMY1-ACTB-RAB5A", "n"],
  ["Cc1n[nH]c(=O)[nH]c1=O", "WPMY1-ACTB-RAB5A", "n"],
  ["CC(CN(C)C)CN1c2ccccc2CCc2ccccc21 (centres undefined)", "WPMY1-ACTB-RAB5A", "y"],
  ["CCCCOc1cc(C(=O)OCCN(CC)CC)ccc1N", "WPMY1-ACTB-RAB5A", "n"],
  ["NC(=O)c1cccc(-c2cccc(OC(=O)NC3CCCCC3)c2)c1", "WPMY1-ACTB-RAB5A", "n"],
  ["O=C1N=C(NCc2cccs2)S/C1=C\\c1ccc2ncccc2c1", "WPMY1-ACTB-RAB5A", "y"],
  ["COc1cc(C)c(/C=C/C(C)=C/C=C/C(C)=C/C(=O)O)c(C)c1C", "WPMY1-ACTB-RAB5A", "n"],
  ["CC[N+](CC)(CCNC(=O)C(=O)NCC[N+](CC)(CC)Cc1ccccc1Cl)Cc1ccccc1Cl", "WPMY1-ACTB-RAB5A", "n"],
  ["CC(=O)N1CCN(c2ccc(OC[C@H]3CO[C@](Cn4ccnc4)(c4ccc(Cl)cc4Cl)O3)cc2)CC1", "WPMY1-ACTB-RAB5A", "n"],
  ["Cc1cc(-c2ccc(/C=C3\\S/C(=N\\c4ccc(Cl)c(C(=O)O)c4)NC3=O)o2)c([N+](=O)[O-])cc1C", "WPMY1-ACTB-RAB5A", "n"]
]}

---

test system: HepG2-CANX-COX4; assay: lowest phenotypically active concentration; higher = less potent; conditions: treatment time: 24 h
Counter-ions that a name gives are not always drawn.
lowest phenotypically active concentration overview
MEASURED ENDPOINT: lowest phenotypically active concentration (µM)

{"columns": ["COMPOUND", "READING QUALIFIER", "RECORDED MEASUREMENT"],
 "data": [
  ["c1cc(-c2cc(C3CCNCC3)[nH]n2)ccn1", "=", 9],
  ["CCCCCCCCCCCCCCCC[n+]1ccn(Cc2ccccc2)c1C", "=", 1],
  ["C/C(=N/NC(=N)N)c1ccc(NC(=O)Nc2ccc(/C(C)=N/NC(=N)N)cc2)cc1", "=", 9],
  ["COc1c(Cl)cc2c([nH]c3cnccc32)c1NC(=O)c1cccnc1C [ML 120B dihydrochloride]", "=", 9],
  ["C#Cc1cccc(Nc2ncnc3cc(OCCOC)c(OCCOC)cc23)c1", "=", 3],
  ["CCCOc1ccc(CCc2nc3cc(-c4c(C)noc4C)ccc3n2CCN2CCOCC2)cc1", "=", 9],
  ["NCC(=O)Nc1ccc(-n2nc(C(F)(F)F)cc2-c2ccc3c(ccc4ccccc43)c2)cc1", "=", 1],
  ["O=C(CCCCCN1C(=O)c2cccc3cccc(c23)C1=O)NO", "=", 1],
  ["CC1(C)CCC(C)(C)c2cc(C(O)C(=O)Nc3ccc(C(=O)O)cc3F)ccc21 (configuration not stated)", "=", 9],
  ["Nc1nccc2c1ncn2[C@@H]1C=C(CO)[C@@H](O)[C@H]1O [3-Deazaneplanocin A hydrochloride]", "≤", 0.3],
  ["O=C(NCCCNc1nc(Nc2cccc(NC(=O)N3CCCC3)c2)ncc1I)c1cccs1", "=", 1],
  ["NS(=O)(=O)c1cc2c(cc1C(F)(F)F)NC(Cc1ccccc1)NS2(=O)=O (configuration not stated) [bendroflumethiazide]", "=", 3],
  ["CC(C)CCN1c2nc(Nc3cc(F)c(O)c(F)c3)ncc2N(C)C(=O)C1C (configuration not stated)", "=", 3],
  ["Cc1c2oc3c(C)ccc(C(=O)NC4C(=O)NC(C(C)C)C(=O)N5CCCC5C(=O)N(C)CC(=O)N(C)C(C(C)C)C(=O)OC4C)c3nc-2c(C(=O)NC2C(=O)NC(C(C)C)C(=O)N3CCCC3C(=O)N(C)CC(=O)N(C)C(C(C)C)C(=O)OC2C)c(N)c1=O (configuration not stated)", "≤", 0.3],
  ["COc1cc2nc(N3CCN(C(=O)c4ccco4)CC3)nc(N)c2cc1OC", "=", 9],
  ["COc1cc2c(cc1O)CC[C@@H]1[C@@H]2CC[C@]2(C)[C@@H](O)CC[C@@H]12", "=", 1],
  ["Cc1nc(NC(=O)N2CCC[C@H]2C(N)=O)sc1-c1ccnc(C(C)(C)C(F)(F)F)c1", "≤", 0.3]
]}
